For each of the compounds below, state its clearance.
Assay: Pharmacokinetic Evaluation in Rats
Assay type: in vivo
Conditions: rat; male SD rats; administered orally or intravenously; plasma up to 8 hours, LC/MS/MS; read-out: CLtot (total clearance) (converted)
One number for each entry, in mL/min/kg.

Example entries and their recorded answers appear below.
compound: CCN(c1ccc(/C=C/CC(NC(=O)c2c(Cl)cccc2Cl)C(=O)O)cc1)c1ncccn1 (centres unmarked) [Example 24]
clearance [mL/min/kg]: 12.6
--
compound: CC(C)N(c1ccc(/C=C/CC(NC(=O)c2c(Cl)cccc2Cl)C(=O)O)cc1)c1ncccn1 (centres unmarked) [Example 28]
clearance [mL/min/kg]: 14.9
--
compound: CN(c1ccc(/C=C/CC(NC(=O)c2ccc(CNS(=O)(=O)c3cc(Cl)cc(Cl)c3)cc2)C(=O)O)cc1)c1ncccn1 (centres unmarked) [Comparative Compound, reference compound]
clearance [mL/min/kg]: 21.4
--
compound: CCOC1(c2ccc(/C=C/CC(NC(=O)c3c(Cl)cccc3Cl)C(=O)O)cc2)CCOCC1 (centres unmarked) [Example 6]
clearance [mL/min/kg]: 19.8
--
compound: COC1(c2ccc(/C=C/CC(NC(=O)c3c(Cl)cccc3Cl)C(=O)O)cc2)CCOCC1 (centres unmarked) [Example 4]
clearance [mL/min/kg]: 10.1

Quick one: give me clearance for each item below, same order please.
1. COC(=O)C(C/C=C/c1ccc(N(CCC#N)c2ncccn2)cc1)NC(=O)c1c(F)cccc1F (centres unmarked) [Example 70]
2. CN(c1ccc(/C=C/C[C@H](NC(=O)c2c(Cl)cccc2Cl)C(=O)[O-])cc1)c1ncccn1.[Na+] [Example 81]
3. CN(c1ccc(/C=C/CC(NC(=O)c2c(Cl)cccc2Cl)C(=O)O)cc1)c1ncccn1 (centres unmarked) [Example 22]

Result:
1: 8.87; 2: 17; 3: 5.1

* * *

Assay: Pharmacokinetic Evaluation in Rats
Assay type: in vivo
Conditions: rat, oral; male SD rats; administered orally or intravenously; plasma up to 8 hours, LC/MS/MS; read-out: BA(%) (bioavailability)
For each of the compounds below, state its bioavailability.
Numbers only, in %.

compound: CC(C)N(c1ccc(/C=C/CC(NC(=O)c2c(Cl)cccc2Cl)C(=O)O)cc1)c1ncccn1 (centres unmarked)
unit.of.measurement: %
bioavailability: 80.6

Quick one: give me bioavailability for each item below, same order please.
1. CCOC1(c2ccc(/C=C/CC(NC(=O)c3c(Cl)cccc3Cl)C(=O)O)cc2)CCOCC1 (centres unmarked)
2. CN(c1ccc(/C=C/CC(NC(=O)c2c(Cl)cccc2Cl)C(=O)O)cc1)c1ncccn1 (centres unmarked)
3. COC1(c2ccc(/C=C/CC(NC(=O)c3c(Cl)cccc3Cl)C(=O)O)cc2)CCOCC1 (centres unmarked)
4. CN(c1ccc(/C=C/C[C@H](NC(=O)c2c(Cl)cccc2Cl)C(=O)[O-])cc1)c1ncccn1.[Na+]
5. COC(=O)C(C/C=C/c1ccc(N(CCC#N)c2ncccn2)cc1)NC(=O)c1c(F)cccc1F (centres unmarked)
6. CN(c1ccc(/C=C/CC(NC(=O)c2ccc(CNS(=O)(=O)c3cc(Cl)cc(Cl)c3)cc2)C(=O)O)cc1)c1ncccn1 (centres unmarked) [Comparative Compound, reference compound]
7. CCN(c1ccc(/C=C/CC(NC(=O)c2c(Cl)cccc2Cl)C(=O)O)cc1)c1ncccn1 (centres unmarked)

Result:
1. 68.5
2. 61.7
3. 55
4. 52.1
5. 63.4
6. 1.7
7. 42.3

Ref: patent US7566724B2
